- test.target: dog IgG (chrompure dog IgG) (dog)
readout.type: maximal absorbance value (A450)
API: value field is a number in A450; no unit string.

Below: 4 binders and their reported maximal absorbance value.
I am curious: what maximal absorbance value value has been reported for SVT16-L123Q-GS2-SVG13M4-H6 (bispecific antibody) QVQLQESGGGSVQAGDSLRLSCAASGRTISNYAMGWFRQAPGKQREFVAAISRSDNTYYTDSVKGRFTISRDNAKNTLYLQMNSLKPEETAVYYCAADPNLMYESKWKYRALEAWGQGTQVTVSSGGGGSGGGSEVQLVESGGGLVQPGGSLRLSCEASGFTFDDYGMSWVRQAPGKGLEWVSSLTPNGGSTYYADSVKGRFTISRDNAKNTLYLQMNSLKPEDTALYYCAKNSYYGAMDYWGQGTQVTVSSHHHHHH ?
0.69

I am curious: what maximal absorbance value value has been reported for SVT02-GS2-SVG06M4-H6 (bispecific antibody) QVQLQQSGGGSVQAGGSLRLSCVGPQRTFSTYGMGWFRQAPGKEREFVAGINYKGDTTYYADSVKGRFTISRDNAKNTLYLQMDSLKPEDRAVYQCARKGGLGGDYRDAGQYRYWGQGTQVTVSSGGGGSGGGSEVQLVESGGALVQPGGSLRLSCAASGFPFSAYDMTWVRQAPGQGLEWVSTIHKSGGITTYADSVKGRFTISRDNAKNTLYLQMNNLESEDTAVYYCAKALRAHNSDYVGRNALGSWGQGTQVTVSSHHHHHH ?
0.06

I am curious: what maximal absorbance value value has been reported for SVT06-GS2-SVG13M4-H6 (bispecific antibody) QVQLQESGGGSVQAGGSLRLSCTASELSYDDYTIAWFRRAAGEGRVEDGEGVASITKSYDRAYDNKINYGHSVKGRFTISRDNAKNTVYLQMTDLLPSDTAVYYCALDITPPGGVGASLTEGFLFDYWGQGTQVTVSSGGGGSGGGSEVQLVESGGGLVQPGGSLRLSCEASGFTFDDYGMSWVRQAPGKGLEWVSSLTPNGGSTYYADSVKGRFTISRDNAKNTLYLQMNSLKPEDTALYYCAKNSYYGAMDYWGQGTQVTVSSHHHHHH ?
1.18

I am curious: what maximal absorbance value value has been reported for SVT15-3FW4M-GS2-SVG06M4-H6 (bispecific antibody) QVQLQESGGGLVQTGGSLRLSCRASGRAFANYHFGWFRQAPGKDREFVASISWKGGSTYYANFALGRFTSSVDRAESSVYLQMSGLTPEDTATYYCAAHDGGDWNYHTGMDYWGQGTQVTVSSGGGGSGGGSEVQLVESGGALVQPGGSLRLSCAASGFPFSAYDMTWVRQAPGQGLEWVSTIHKSGGITTYADSVKGRFTISRDNAKNTLYLQMNNLESEDTAVYYCAKALRAHNSDYVGRNALGSWGQGTQVTVSSHHHHHH ?
0.07

In the following, a different binder is considered.
I am curious: what maximal absorbance value value has been reported for SVG13L (VHH) VHH: QVQLQESGGGLVQPGGSLRLSCEASGFTFDDYGMSWVRQAPGKGLEWVSSLTPNGGSTYYADSVKGRFTISRDNAKNTLYLQMNSLKPEDTALYYCAKNSYYGAMDYWGKGTLVTVSS ?
0.16
